Biological target: human Bradykinin B1 receptor (Homo sapiens, UniProt P46663)
Sequence (P46663 whole entry): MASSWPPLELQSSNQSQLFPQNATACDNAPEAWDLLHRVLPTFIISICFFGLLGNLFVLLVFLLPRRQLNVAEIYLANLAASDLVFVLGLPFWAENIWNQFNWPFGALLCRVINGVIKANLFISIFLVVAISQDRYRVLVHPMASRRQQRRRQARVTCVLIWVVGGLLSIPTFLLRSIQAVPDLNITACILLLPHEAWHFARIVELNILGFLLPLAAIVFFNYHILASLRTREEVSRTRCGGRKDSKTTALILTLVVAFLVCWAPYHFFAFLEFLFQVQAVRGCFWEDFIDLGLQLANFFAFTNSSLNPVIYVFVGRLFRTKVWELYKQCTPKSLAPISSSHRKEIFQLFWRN
Test: Calcium flux assay (FLIPR), CHO-K1 cells expressing human Bradykinin B1 receptor, absence of 0.1% BSA (hB1 free IC50)
Conditions: absence of 0.1% BSA in assay buffer
pIC50: −log10 of the molar value.
readout kind: pIC50

structure as smiles	readout kind	endpoint value
O=C(O)c1cc(NC(=O)C2(c3ccc(C(F)(F)F)cc3F)CC2)ccc1-c1cnn(C2CCCCC2)c1	pIC50	7.89
Cc1ccc(C2(C(=O)Nc3ccc(-c4ccc(C(C)(F)F)nc4)c(C(=O)O)c3)CC2)c(F)c1	pIC50	6.39
CC(C)(C)Cn1cc(-c2ccc(NC(=O)C3(c4ccc(C(F)(F)F)cc4F)CC3)cc2C(=O)O)cn1	pIC50	7.96
O=C(O)c1cc(NC(=O)C2(c3ccc(C(F)(F)F)cc3F)CC2)cc(F)c1-c1ccc(C(F)F)nc1	pIC50	7.70
CC(C)n1cc(-c2ccc(NC(=O)C3(c4ccc(C(F)(F)F)cc4F)CC3)cc2C(=O)O)cn1	pIC50	7.47
CC[C@H](C)n1cc(-c2ccc(NC(=O)C3(c4ccc(C(F)(F)F)cc4F)CC3)cc2C(=O)O)cn1	pIC50	7.30

A: O=C(O)c1cc(NC(=O)C2(c3ccc(C(F)(F)F)cc3F)CC2)ccc1-c1ccc(C(F)(F)F)s1
B: Cc1ccc(-c2c(F)cc(NC(=O)C3(c4ccc(C(F)(F)F)cc4F)CC3)cc2C(=O)O)cn1
stdin: From the items above, decide which of A and B has the lower pIC50 reading. // output: label of the selected item
stdout: A
(A: 6.66, B: 7.43)

* * *

Target: human Bradykinin B1 receptor (Homo sapiens, UniProt P46663)
Assay: Calcium flux assay (FLIPR), CHO-K1 cells expressing human Bradykinin B1 receptor, absence of 0.1% BSA (hB1 free IC50)
Details: absence of 0.1% BSA in assay buffer
pIC50: −log10 of the molar value.
readout kind: pIC50

structure as smiles	readout kind	endpoint value
O=C(O)c1cc(NC(=O)C2(c3ccc(C(F)(F)F)cc3F)CC2)ccc1-c1cnc(C2CCC2)s1	pIC50	8.47
CC(F)(F)c1ccc(-c2ccc(NC(=O)C3(c4ccc(C(F)(F)F)cc4F)CC3)cc2C(=O)O)cn1	pIC50	6.89
O=C(O)c1cc(NC(=O)C2(c3ccc(C(F)(F)F)cc3F)CC2)ccc1-c1ccc(Cl)s1	pIC50	6.64
O=C(O)c1cc(NC(=O)C2(c3ccc(OC(F)(F)F)cc3F)CC2)ccc1-n1cc(C(F)(F)F)cn1	pIC50	5.59
O=C(O)c1cc(NC(=O)C2(c3ccc(OC(F)(F)F)cc3F)CC2)cc(Cl)c1-c1cnn(C2CCC2)c1	pIC50	8.46

1: COc1ccc(F)c(C2(C(=O)Nc3ccc(-c4cnn(C5CCC5)c4)c(C(=O)O)c3)CC2)c1
2: O=C(O)c1cc(NC(=O)C2(c3c(F)cccc3F)CC2)ccc1-c1cnn(C2CCC2)c1
stdin: # returns the entry with the larger pIC50; inputs 1 and 2 When you have decided, please share the label of that item.
stdout: 2
(2: 5.96, 1: 5.52)

1: O=C(O)c1cc(NC(=O)C2(c3ccc(C(F)(F)F)c(F)c3)CC2)ccc1-c1cnn(C2CCC2)c1
2: CCOc1ccc(-c2ccc(NC(=O)C3(c4ccc(C(F)(F)F)cc4F)CC3)cc2C(=O)O)cn1
stdin: Of 1 and 2 , which shows the smaller pIC50 value? Mark your answer with the label of the selected entry.
stdout: 1

I: O=C(O)c1cc(NC(=O)C2(c3ccc(C(F)(F)F)cc3)CC2)ccc1-c1cnn(C2CCC2)c1
II: CC[C@@H](C)n1cc(-c2c(F)cc(NC(=O)C3(c4ccc(C(F)(F)F)cc4F)CC3)cc2C(=O)O)cn1
III: CCc1ccc(-c2ccc(NC(=O)C3(c4ccc(OC(F)(F)F)cc4F)CC3)cc2C(=O)O)cn1
IV: O=C(O)c1cc(NC(=O)C2(c3ccc(F)cn3)CC2)ccc1-c1cnn(C2CCC2)c1
V: Cc1ccc(C2(C(=O)Nc3ccc(-c4cnn(CC(C)C)c4)c(C(=O)O)c3)CC2)c(F)c1
stdin: // ascending sort on recorded pIC50 List each label, following the requested order.
stdout: IV, V, I, II, III

A: CC(C)n1cc(-c2c(F)cc(NC(=O)C3(c4ccc(C(F)(F)F)cc4)CC3)cc2C(=O)O)cn1
B: O=C(O)c1cc(NC(=O)C2(c3ccc(C(F)(F)F)cc3F)CC2)ccc1-c1cnn(C2CC2)c1
stdin: // pick larger pIC50 from pair: A vs B Give the label under which the chosen entry appears.
stdout: A
(A: 7.15, B: 6.70)

1: CCn1cc(-c2ccc(NC(=O)C3(c4ccc(OC(F)(F)F)cc4F)CC3)cc2C(=O)O)cn1
2: CC(C)(C)c1ccn(-c2ccc(NC(=O)C3(c4ccc(OC(F)(F)F)cc4F)CC3)cc2C(=O)O)n1
stdin: Returns: the argument ( 1 or 2 ) having the larger pIC50. Returns: label corresponding to the selected item.
stdout: 1
(1: 7.55, 2: 5.68)

a: O=C(O)c1cc(NC(=O)C2(c3c(F)cccc3Cl)CC2)ccc1-c1cnn(C2CCC2)c1
b: O=C(O)c1cc(NC(=O)C2(c3ccc(OC(F)(F)F)cc3)CC2)cc(F)c1-c1cnn(C2CCC2)c1
stdin: I'd appreciate it if you could identify which of a and b has the greater pIC50. # reply format: chosen label
stdout: b

A: O=C(O)c1c(-c2cnn(C3CCC3)c2)ccc(NC(=O)C2(c3ccc(OC(F)(F)F)cc3F)CC2)c1F
B: CC(C)(C)n1cc(-c2c(F)cc(NC(=O)C3(c4ccc(C(F)(F)F)cc4F)CC3)cc2C(=O)O)cn1
stdin: Endpoint returns whichever of A and B has the numerically higher pIC50. Output the label that corresponds to your choice.
stdout: B
(B: 7.21, A: 5.70)

A: O=C(O)c1cc(NC(=O)C2(c3cccc(Cl)c3F)CC2)ccc1-c1cnn(C2CCC2)c1
B: O=C(O)c1cc(NC(=O)C2(c3ccc(OC(F)(F)F)cc3F)CC2)cc(F)c1-c1cnn(CC2CC2)c1
stdin: For A and B , which recorded pIC50 is lower? Please identify the chosen entry by its label.
stdout: A
(A: 6.13, B: 7.96)

Source: patent US12023319B2
